Reference for the values: paper PMC2855743

- assay.system: T1, ComAC (ComA C-terminal DNA-binding domain) (Bacillus subtilis, UniProt P14204 146-214)
- T1 sequence: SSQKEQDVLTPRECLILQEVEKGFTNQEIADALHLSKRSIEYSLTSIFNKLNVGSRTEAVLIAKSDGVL
- experimental.protocol: SPR
value.kind: pKd
Answers are plain numbers, as −log10 of the molar value.

1. Consensus RE3 (dsDNA) DNA 1: TTTCGGCATCCCGCATGAAACTTTGCGG DNA 2: CCGCAAAGTTTCATGCGGGATGCCGAAA | 8.31

# next binder below
Ask: Fill blank: measured pKd of the binder Wild type srfA (dsDNA) DNA 1: TTTCGGCATCCCGCATGAAACTTTTCAC DNA 2: GTGAAAAGTTTCATGCGGGATGCCGAAA is ____.
Result: 8.02
